Substrate: CC(=O)Oc1cccc2ccccc12
experimentalDetails: spectrophotometric esterase assay
Assay type: biochemical, Oleispira antarctica
studyConditions: 0.4 M NaCl, 50 mM potassium Hepes pH 8.0, 20°C
assayMetric: Km (µM)

{"columns": ["protein", "readoutUnit", "measured"],
 "data": [
  ["OLEI01171 (Oleispira antarctica; K66A) (protein) MSIENLSSNKSFGGWHKQYSHVSNTLNCAMRFAIYLPPQASTGAKVPVLYWLSGLTCSDENFMQAAGAQRLAAELGIAIVAPDTSPRGEGVADDEGYDLGQGAGFYVNATQAPWNRHYQMYDYVVNELPELIESMFPVSDKRAIAGHSMGGHGALTIALRNPERYQSVSAFSPINNPVNCPWGQKAFTAYLGKDTDTWREYDASLLMRAAKQYVPALVDQGEADNFLAEQLKPEVLEAAASSNNYPLELRSHEGYDHSYYFIASFIEDHLRFHSNYLNA", "µM", 400]
]}
